// fold induction at 30 mg/kg lookup, one value per entry
System: Nqo1 (NAD(P)H quinone dehydrogenase 1) mRNA, Nrf2 downstream molecule
Experiment: In vivo Nrf2 transcriptional activity measurement (Nqo1 mRNA in organs by qPCR)
Conditions: Mus musculus; C57BL/6J mice, Oral, 30 mg/kg, 7 to 8 hours, liver; read-out: Nqo1 mRNA expression level ratio to non-administration group, Liver
parameter-measured: fold induction at 30 mg/kg

| smiles-input | system | parameter-measured | result |
| --- | --- | --- | --- |
| Cn1cc(-c2cc(Cl)c(C(=O)N3COc4c(cccc4-c4ccc(C(=O)O)c(N5CCOCC5)c4)C3)c(Cl)c2)cn1 | Nqo1 (NAD(P)H quinone dehydrogenase 1) mRNA, Nrf2 downstream molecule | fold induction at 30 mg/kg | 4.2 |
| O=C(O)c1cc(F)c(-c2cccc3c2OCN(C(=O)c2c(Cl)cc(N4CC5(C4)OCCCO5)cc2Cl)C3)cc1N1C2CCC1COC2 | Nqo1 (NAD(P)H quinone dehydrogenase 1) mRNA, Nrf2 downstream molecule | fold induction at 30 mg/kg | 6.9 |
| CC1(C)COC2(CN(c3cc(Cl)c(C(=O)N4COc5c(cccc5-c5cc(N6C7CCC6COC7)c(C(=O)O)cc5F)C4)c(Cl)c3)C2)OC1 | Nqo1 (NAD(P)H quinone dehydrogenase 1) mRNA, Nrf2 downstream molecule | fold induction at 30 mg/kg | 6 |

Numbers sourced from patent US20250171457A1.
